Target sequence: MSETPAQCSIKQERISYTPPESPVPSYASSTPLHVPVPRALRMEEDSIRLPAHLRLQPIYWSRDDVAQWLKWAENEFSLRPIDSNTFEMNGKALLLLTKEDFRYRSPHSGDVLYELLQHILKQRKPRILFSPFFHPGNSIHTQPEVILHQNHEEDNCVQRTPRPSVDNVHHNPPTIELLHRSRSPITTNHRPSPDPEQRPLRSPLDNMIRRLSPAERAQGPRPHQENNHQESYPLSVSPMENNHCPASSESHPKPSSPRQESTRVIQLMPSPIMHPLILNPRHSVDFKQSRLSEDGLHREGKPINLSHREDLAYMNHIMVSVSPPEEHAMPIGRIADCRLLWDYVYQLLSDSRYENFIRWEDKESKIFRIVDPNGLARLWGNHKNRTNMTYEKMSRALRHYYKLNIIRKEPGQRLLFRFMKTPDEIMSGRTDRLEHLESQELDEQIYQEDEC
Measured IC50, listed per entry.

// known answers, use as guide
molecule: CCNc1cc(-c2nc3ccccc3o2)ccc1C
endpoint: IC50
result-value: > 4.4 mM
//
molecule: Nc1ccc(Cl)c(-c2nc3ccccc3o2)c1
endpoint: IC50
result-value: > 2.5 mM
//
molecule: COc1cc(OCC(=O)Nc2cccc(O)c2)ccc1C
endpoint: IC50
result-value: > 2 mM

Please examine the following record next.
Fill blank: measured IC50 of the compound COc1ccc(-c2c(C(C)=O)oc3c(OC)cccc23)cc1 is ____.
> 7.8 mM

Origin of the recorded values: patent US20250361227A1
